system: L1210 leukemia ip in BDF1 mice, survival T/C; test: NCI In Vivo Anticancer Drug Screen. Data for tumor model L1210 Leukemia (intraperitoneal) in B6D2F1 (BDF1) mice; conditions: endpoint: mean survival time; dose: 100.0 mg/kg/injection; schedule: Q01DX001 (ip); vehicle: saline; higher = longer survival
Toxic doses and inconclusive results are not listed.
readoutName: T/C

Solved entries (count: 3):
{"columns": ["compound", "assaySystem", "measuredResult"],
 "data": [
  ["O=C(O)C12C3(Cl)C4(Cl)C(O)(O)C5(Cl)C3(Cl)C1(Cl)C5(Cl)C42Cl (stereo not given)", "L1210 leukemia ip in BDF1 mice, survival T/C", "105 % of control"],
  ["CCOC(=O)c1ccc(N=NC2C(=O)N(c3ccccc3)N=C2C)cc1 (stereo not given)", "L1210 leukemia ip in BDF1 mice, survival T/C", "96 % of control"],
  ["c1ccc2c(c1)OC1OC2Oc2ccccc21", "L1210 leukemia ip in BDF1 mice, survival T/C", "97 % of control"]
]}

# per-item lookup of T/C; items listed below
1. O=C(Nc1cccc2cccnc12)C(F)(F)F
2. CC(=O)Nc1ccc2c(c1)C(c1ccccc1)=NCC(=O)N2
3. c1ccc2c(c1)ccc1oc3ccccc3c12

1: 104 % of control; 2: 103 % of control; 3: 101 % of control

Return reported T/C values for all items listed beneath this line.
1. O=C(C#Cc1ccccc1)OCC#Cc1ccccc1
2. Nc1nc(=O)n(C2OC(CO)C(O)C2O)cc1F (stereo not given)

1. 102 % of control
2. 118 % of control

List T/C for every entry below, keeping the order given.
1. C(=N\Nc1nnc(N/N=C/c2cccc3ccccc23)c2ccccc12)/c1cccc2ccccc12
2. O=c1cc(CO)oc(C(Nc2ccccc2)c2ccccc2)c1O (stereo not given)
3. Cc1nc2ccccc2c(=O)n1N

["92 % of control", "91 % of control", "111 % of control"]

I have 8 compounds here; please give me T/C for each one.
1. Cc1nnc(C)n1N
2. ClCc1c2ccccc2c(CCl)c2ccccc12
3. S=P(NC1CCCCC1)(NC1CCCCC1)NC1CCCCC1
4. NC(=O)N1CCCCC1
5. Cc1nsc(N)n1
6. N#Cc1[nH]cnc1N
7. NC(N)(C(F)(F)F)C(F)(F)F
8. O=S(=O)(CC(O)(c1ccccc1)c1ccccc1)CC(O)(c1ccccc1)c1ccccc1

106 % of control
118 % of control
95 % of control
102 % of control
92 % of control
94 % of control
101 % of control
91 % of control

Please give T/C for each item listed below.
1. COc1c(C)c2c(c(O)c1C/C=C(\C)CCC(=O)O)C(=O)OC2
2. CC(=O)NN

["100 % of control", "104 % of control"]

Hello, I would appreciate it if you could give T/C for each entry below.
1. O=C(O)C(O)C(Br)C(=O)O (stereo not given)
2. CCOP(=S)(N/N=C1/C2(C)CCC(C2)C1(C)C)OCC (stereo not given)

95 % of control
97 % of control

Take each entry in turn and give its T/C.
1. On1ccc(N2CCOCC2)cc1=NC1CCCCC1
2. O=C(CCCC(=O)N/N=C/c1ccc(-c2ccccc2)cc1)N/N=C\c1ccc(-c2ccccc2)cc1
3. CN(C)c1ccc2nc3ccc(=[N+](C)C)cc-3sc2c1
4. O=C1c2c(ccc3ccccc23)CCC1CN1CCCCC1 (stereo not given)
5. CCCCCCN

1: 103 % of control; 2: 98 % of control; 3: 108 % of control; 4: 102 % of control; 5: 101 % of control

Your task in this section: give T/C for each listed record.
1. O=C1NC(=S)NC(=O)C1=Cc1ccncc1
2. COC1(c2ccccc2)OC12CC1CCC2C1 (stereo not given)
3. Cc1cc(=O)[nH]c2c(C)cccc12
4. CNNC(=O)Cc1ccc(OC)cc1
5. CCCC(=O)Oc1ccc(C(C)(C)CC(C)(C)C)cc1
6. CCC(c1ccc(OC)cc1)C(CC)c1ccc(OCCN2CCCC2)cc1 (stereo not given)
7. CCC(N)C(=O)O (stereo not given)
8. COc1[nH]c(=O)[nH]c(=O)c1OP(=O)(OC)OC

["105 % of control", "95 % of control", "95 % of control", "100 % of control", "94 % of control", "97 % of control", "108 % of control", "98 % of control"]
